Listed next: entries and their corresponding mean size (hydrodynamic diameter).
# Assay: Hydrodynamic diameter and colloidal stability of aggregates by dynamic light scattering
# Type: physicochemical
# Condition set: 1.25 μM in PBS from DMSO stock, 37 °C
Quantity: mean size (hydrodynamic diameter) (nm)

compound="CC1=C(/C=C/C(C)=C/C=C/C(C)=C/C=C/C=C(C)/C=C/C=C(C)/C=C/C2=C(C)C[C@@H](OC(=O)CCC(=O)O)CC2(C)C)C(C)(C)CCC1 [Compound 8, β-Cryptoxanthin succinate]" measured_number=31.94
compound="CC1=C(/C=C/C(C)=C/C=C/C(C)=C/C=C/C=C(C)/C=C/C=C(\\C)COC(=O)CCC(=O)O)C(C)(C)CCC1 [Compound 6, 8′-Apo-β-carotenol succinate]" measured_number=221.50
compound="CC1=C(/C=C/C(C)=C/C=C/C(C)=C/C=C/C=C(C)/C=C/C=C(C)/C=C/C2=C(C)C[C@@H](OC(=O)CCC(=O)O)CC2(C)C)C(C)(C)C[C@H](O)C1 [Compound 11, Zeaxanthin monossuccinate]" measured_number=25.09
compound="CC1=C(/C=C/C(C)=C/C=C/C(C)=C/C=C/C=C(C)/C=C/C=C(C)/C=C/C2=C(C)C[C@@H](OC(=O)CCC(=O)O)CC2(C)C)C(C)(C)C[C@H](OC(=O)CCC(=O)O)C1 [Compound 7, Zeaxanthin bissuccinate]" measured_number=544.50

====

# Assay: Hydrodynamic diameter and colloidal stability of aggregates by dynamic light scattering
# Format: physicochemical
# Condition set: 0.3125 μM in PBS from DMSO stock, 37 °C
Quantity: mean size (hydrodynamic diameter) (nm)

compound="COc1ccc2[nH]cc(CCNC(=O)CNC(=O)CCC(=O)OC/C(C)=C/C=C/C(C)=C/C=C/C=C(C)/C=C/C=C(C)/C=C/C3=C(C)CCCC3(C)C)c2c1 [Compound 18, 8′-Apo-β-carotenol-melatonin conjugate]" quantity="mean size (hydrodynamic diameter)" measurement_units=nm measured_number=148.60
compound="COc1ccc2[nH]cc(CCNC(=O)CNC(=O)CCC(=O)O[C@@H]3CC(C)=C(/C=C/C(C)=C/C=C/C(C)=C/C=C/C=C(C)/C=C/C=C(C)/C=C/C4=C(C)C[C@@H](O)CC4(C)C)C(C)(C)C3)c2c1 [Compound 13, Zeaxanthin-monomelatonin conjugate]" quantity="mean size (hydrodynamic diameter)" measurement_units=nm measured_number=388.20
compound="CC1=C(/C=C/C(C)=C/C=C/C(C)=C/C=C/C=C(C)/C=C/C=C(C)/C=C/C2=C(C)C[C@@H](OC(=O)CCC(=O)O)CC2(C)C)C(C)(C)C[C@H](O)C1 [Compound 11, Zeaxanthin monossuccinate]" quantity="mean size (hydrodynamic diameter)" measurement_units=nm measured_number=30.98

====

# Assay: Hydrodynamic diameter and colloidal stability of aggregates by dynamic light scattering
# Type: physicochemical
# Condition set: 0.3125 μM in PBS; sd^2/mean size^2
Quantity: PDI

compound="CC1=C(/C=C/C(C)=C/C=C/C(C)=C/C=C/C=C(C)/C=C/C=C(C)/C=C/C2=C(C)C[C@@H](OC(=O)CCC(=O)O)CC2(C)C)C(C)(C)CCC1 [Compound 8, β-Cryptoxanthin succinate]" measured_number=0.0168
compound="CC1=C(/C=C/C(C)=C/C=C/C(C)=C/C=C/C=C(C)/C=C/C=C(\\C)COC(=O)CCC(=O)O)C(C)(C)CCC1 [Compound 6, 8′-Apo-β-carotenol succinate]" measured_number=0.0137
compound="COc1ccc2[nH]cc(CCNC(=O)CNC(=O)CCC(=O)O[C@@H]3CC(C)=C(/C=C/C(C)=C/C=C/C(C)=C/C=C/C=C(C)/C=C/C=C(C)/C=C/C4=C(C)CCCC4(C)C)C(C)(C)C3)c2c1 [Compound 15, Cryptoxanthin-melatonin conjugate]" measured_number=0.0356
compound="CC1=C(/C=C/C(C)=C/C=C/C(C)=C/C=C/C=C(C)/C=C/C=C(C)/C=C/C2=C(C)C[C@@H](OC(=O)CCC(=O)O)CC2(C)C)C(C)(C)C[C@H](OC(=O)CCC(=O)O)C1 [Compound 7, Zeaxanthin bissuccinate]" measured_number=0.0407
compound="COc1ccc2[nH]cc(CCNC(=O)CNC(=O)CCC(=O)O[C@@H]3CC(C)=C(/C=C/C(C)=C/C=C/C(C)=C/C=C/C=C(C)/C=C/C=C(C)/C=C/C4C(C)=C[C@@H](OC(=O)CCC(=O)NCC(=O)NCCc5c[nH]c6ccc(OC)cc56)CC4(C)C)C(C)(C)C3)c2c1 (some centres unmarked) [Compound 16, Lutein-bismelatonin conjugate]" measured_number=0.2022
compound="COc1ccc2[nH]cc(CCNC(=O)CNC(=O)CCC(=O)OC/C(C)=C/C=C/C(C)=C/C=C/C=C(C)/C=C/C=C(C)/C=C/C3=C(C)CCCC3(C)C)c2c1 [Compound 18, 8′-Apo-β-carotenol-melatonin conjugate]" measured_number=0.0199
compound="COc1ccc2[nH]cc(CCNC(=O)CNC(=O)CCC(=O)O[C@@H]3CC(C)=C(/C=C/C(C)=C/C=C/C(C)=C/C=C/C=C(C)/C=C/C=C(C)/C=C/C4=C(C)C[C@@H](O)CC4(C)C)C(C)(C)C3)c2c1 [Compound 13, Zeaxanthin-monomelatonin conjugate]" measured_number=0.0336
compound="CC1=C(/C=C/C(C)=C/C=C/C(C)=C/C=C/C=C(C)/C=C/C=C(C)/C=C/C(=O)[C@]2(C)C[C@@H](OC(=O)CCC(=O)O)CC2(C)C)C(C)(C)C[C@H](OC(=O)CCC(=O)O)C1 [Compound 9, Capsanthin bissuccinate]" measured_number=0.0186
compound="COc1ccc2[nH]cc(CCNC(=O)CNC(=O)CCC(=O)O[C@@H]3CC(C)=C(/C=C/C(C)=C/C=C/C(C)=C/C=C/C=C(C)/C=C/C=C(C)/C=C/C(=O)[C@]4(C)C[C@@H](OC(=O)CCC(=O)NCC(=O)NCCc5c[nH]c6ccc(OC)cc56)CC4(C)C)C(C)(C)C3)c2c1 [Compound 17, Capsanthin-dimelatonin conjugate]" measured_number=0.0408
compound="CC1=C[C@H](OC(=O)CCC(=O)O)CC(C)(C)[C@H]1/C=C/C(C)=C/C=C/C(C)=C/C=C/C=C(C)/C=C/C=C(C)/C=C/C1=C(C)C[C@@H](OC(=O)CCC(=O)O)CC1(C)C [Compound 10, Lutein bissuccinate]" measured_number=0.0235
compound="CC1=C(/C=C/C(C)=C/C=C/C(C)=C/C=C/C=C(C)/C=C/C=C(C)/C=C/C2=C(C)C[C@@H](OC(=O)CCC(=O)O)CC2(C)C)C(C)(C)C[C@H](O)C1 [Compound 11, Zeaxanthin monossuccinate]" measured_number=0.0256

====

# Assay: Hydrodynamic diameter and colloidal stability of aggregates by dynamic light scattering
# Assay type: physicochemical
# Condition set: 3.75 μM in PBS; sd^2/mean size^2
Quantity: PDI

compound="COc1ccc2[nH]cc(CCNC(=O)CNC(=O)CCC(=O)O[C@@H]3CC(C)=C(/C=C/C(C)=C/C=C/C(C)=C/C=C/C=C(C)/C=C/C=C(C)/C=C/C4=C(C)C[C@@H](OC(=O)CCC(=O)NCC(=O)NCCc5c[nH]c6ccc(OC)cc56)CC4(C)C)C(C)(C)C3)c2c1 [Compound 14, Zeaxanthin-bismelatonin conjugate]" quantity=PDI measured_number=0.0108
compound="CC1=C(/C=C/C(C)=C/C=C/C(C)=C/C=C/C=C(C)/C=C/C=C(C)/C=C/C2=C(C)C[C@@H](OC(=O)CCC(=O)O)CC2(C)C)C(C)(C)CCC1 [Compound 8, β-Cryptoxanthin succinate]" quantity=PDI measured_number=0.0131
compound="COc1ccc2[nH]cc(CCNC(=O)CNC(=O)CCC(=O)O[C@@H]3CC(C)=C(/C=C/C(C)=C/C=C/C(C)=C/C=C/C=C(C)/C=C/C=C(C)/C=C/C4C(C)=C[C@@H](OC(=O)CCC(=O)NCC(=O)NCCc5c[nH]c6ccc(OC)cc56)CC4(C)C)C(C)(C)C3)c2c1 (stereo partly shown) [Compound 16, Lutein-bismelatonin conjugate]" quantity=PDI measured_number=0.1229
compound="COc1ccc2[nH]cc(CCNC(=O)CNC(=O)CCC(=O)OC/C(C)=C/C=C/C(C)=C/C=C/C=C(C)/C=C/C=C(C)/C=C/C3=C(C)CCCC3(C)C)c2c1 [Compound 18, 8′-Apo-β-carotenol-melatonin conjugate]" quantity=PDI measured_number=0.1662

====

# Assay: Hydrodynamic diameter and colloidal stability of aggregates by dynamic light scattering
# Format: physicochemical
# Condition set: 3.75 μM in PBS from DMSO stock, 37 °C
Quantity: mean size (hydrodynamic diameter) (nm)

compound="COc1ccc2[nH]cc(CCNC(=O)CNC(=O)CCC(=O)O[C@@H]3CC(C)=C(/C=C/C(C)=C/C=C/C(C)=C/C=C/C=C(C)/C=C/C=C(C)/C=C/C(=O)[C@]4(C)C[C@@H](OC(=O)CCC(=O)NCC(=O)NCCc5c[nH]c6ccc(OC)cc56)CC4(C)C)C(C)(C)C3)c2c1 [Compound 17, Capsanthin-dimelatonin conjugate]" measured_number=58.55
compound="CC1=C(/C=C/C(C)=C/C=C/C(C)=C/C=C/C=C(C)/C=C/C=C(C)/C=C/C2=C(C)C[C@@H](OC(=O)CCC(=O)O)CC2(C)C)C(C)(C)C[C@H](OC(=O)CCC(=O)O)C1 [Compound 7, Zeaxanthin bissuccinate]" measured_number=44.78
